- tested_on: HCV NS5B polymerase 1a-H77-C316Y (Hepatitis C virus genotype 1a, UniProt P27958, C2736Y)
- Construct: six-histidine tag
- Sequence (P27958 2421-2990 C2736Y): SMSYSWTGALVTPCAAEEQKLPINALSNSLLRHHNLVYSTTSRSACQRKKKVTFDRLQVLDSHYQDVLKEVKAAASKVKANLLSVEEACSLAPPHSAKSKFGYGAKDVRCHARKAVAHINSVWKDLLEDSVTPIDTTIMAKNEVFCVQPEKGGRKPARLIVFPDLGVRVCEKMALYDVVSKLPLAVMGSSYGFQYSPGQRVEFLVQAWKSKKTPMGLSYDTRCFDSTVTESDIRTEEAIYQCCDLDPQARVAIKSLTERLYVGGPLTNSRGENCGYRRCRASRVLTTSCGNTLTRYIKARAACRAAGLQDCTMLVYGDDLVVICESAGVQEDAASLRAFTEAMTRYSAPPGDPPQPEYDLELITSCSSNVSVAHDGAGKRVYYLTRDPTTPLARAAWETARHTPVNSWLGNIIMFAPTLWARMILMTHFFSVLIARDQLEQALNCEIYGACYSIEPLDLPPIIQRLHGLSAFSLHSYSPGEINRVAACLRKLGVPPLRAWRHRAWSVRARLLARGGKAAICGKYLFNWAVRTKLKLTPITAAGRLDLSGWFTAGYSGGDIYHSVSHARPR
- procedure_summary: biochemical
pIC50: −log10 of the molar value.
Consider the following compounds and their measured pIC50 readings.
measured_metric: pIC50

1) CS(=O)(=O)N(CCN1CCCC1)c1cc2oc(-c3ccc(F)cc3)c(-c3ncc[nH]3)c2cc1C1CC1	5.32
2) CS(=O)(=O)N(Cc1cnc(-c2c[nH]c(=O)[nH]c2=O)s1)c1ccc2c(-c3ncc[nH]3)c(-c3ccccc3)oc2c1	8.15
3) CCOC(=O)CCCN(c1cc2oc(-c3ccc(F)cc3)c(C3=NOCCN3)c2cc1C1CC1)S(C)(=O)=O	7.40
